These measurements were taken from paper PMC11249646.

biological target: CIB1 and αIIb interaction (CIB1-GST : F-αIIb peptide) (Homo sapiens, UniProt Q99828); construct: made in house; host or cells: BL-21 plus RIL cells (E. coli); assay: FP assay, 1536-well qHTS format (primary and confirmatory screen); type: binding; conditions: qHTS primary screen hits, Table S2; read-out: IC50
Sequence (Q99828 whole entry): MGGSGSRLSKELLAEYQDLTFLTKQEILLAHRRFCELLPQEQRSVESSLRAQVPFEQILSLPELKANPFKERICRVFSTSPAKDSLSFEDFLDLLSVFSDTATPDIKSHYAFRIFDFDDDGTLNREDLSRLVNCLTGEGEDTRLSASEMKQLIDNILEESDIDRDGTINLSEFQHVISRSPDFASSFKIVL
So I've got a bunch of compounds here, and I need their pIC50 values.
Worth noting: pIC50 values are minus log10 of concentrations stated in mol/L.

Short answer for O=C(O)C1NCc2[nH]cnc2C1c1ccccc1 (stereo not shown) [NCGC00167998-01] : pIC50 was 4.30

Short answer for CC1OC2OC(=O)C3(C)CC4C5(CO5)C5=CC(=O)OC(C)(C)C5=CC(=O)C4(C)C(C1=O)C23 (stereo not shown) [NCGC00380663-01] : pIC50 was 4.50

Short answer for CCOC(=O)c1csc(-n2nc(-c3ccc(F)c(F)c3)cc2O)n1 [NCGC00356457-01] : pIC50 was 4.25

Short answer for O=C(Cn1nc(-c2ccc(F)cc2)ccc1=O)NCCc1ccccc1.O=C(O)C(F)(F)F [NCGC00262332-01] : pIC50 was 4.25
